Source listed as ChEMBL document CHEMBL1909046.

testSummary: DRUGMATRIX: ATPase, Na+/K+ enzyme inhibition (substrate: ATP)
Format: tissue-based, Sus scrofa, Heart
runParameters: Not Active = under 50% inhibition at 10 µM
endpoint: Ki

Record excerpt, results attached:
molecule: COc1ccccc1OCC(O)COC(N)=O (configuration not stated)
Ki: Not Active

molecule: CO[C@@]1(NC(=O)CSCC#N)C(=O)N2C(C(=O)O)=C(CSc3nnnn3C)CS[C@@H]21
Ki: Not Active

molecule: CCC(=O)O[C@H]1[C@H](O[C@@H]2[C@@H](C)[C@H](O[C@H]3C[C@@](C)(OC)[C@@H](O)[C@H](C)O3)[C@@H](C)C(=O)O[C@H](CC)[C@@](C)(O)[C@H](O)[C@@H](C)C(=O)[C@H](C)C[C@@]2(C)O)O[C@H](C)C[C@@H]1N(C)C [ERYTHROMYCIN PROPIONATE]
Ki: Not Active

molecule: CC[C@H](C)C(=O)O[C@H]1C[C@@H](C)C=C2C=C[C@H](C)[C@H](CC[C@@H]3C[C@@H](O)CC(=O)O3)[C@H]21
Ki: Not Active

Return reported Ki values for all items listed beneath this line.
1. CC(=O)O[C@]1(C(C)=O)CC[C@H]2[C@@H]3C=C(C)C4=CC(=O)CC[C@]4(C)[C@H]3CC[C@@]21C [MEGESTROL ACETATE]
2. Clc1cc2c(cc1Cl)Oc1cc(Cl)c(Cl)cc1O2
3. COC(=O)c1ccccc1O [METHYL SALICYLATE]

Result:
Not Active
Not Active
Not Active

Each of the following entries comes with a recorded value; kindly state Ki for each.
1. CCCc1nn(C)c2c(=O)[nH]c(-c3cc(S(=O)(=O)N4CCN(C)CC4)ccc3OCC)nc12
2. CC(C)(C)NC[C@H](O)COc1nsnc1N1CCOCC1

Result:
["Not Active", "Not Active"]
